Entry source: ChEMBL document CHEMBL4376853

Give measured relative potency vs ANF (IC50 ratio) at 35 min for each item. Keep answers brief.
Biological target: Cytochrome P450 1B1 (Homo sapiens, UniProt Q16678)
Sequence (Q16678 whole entry): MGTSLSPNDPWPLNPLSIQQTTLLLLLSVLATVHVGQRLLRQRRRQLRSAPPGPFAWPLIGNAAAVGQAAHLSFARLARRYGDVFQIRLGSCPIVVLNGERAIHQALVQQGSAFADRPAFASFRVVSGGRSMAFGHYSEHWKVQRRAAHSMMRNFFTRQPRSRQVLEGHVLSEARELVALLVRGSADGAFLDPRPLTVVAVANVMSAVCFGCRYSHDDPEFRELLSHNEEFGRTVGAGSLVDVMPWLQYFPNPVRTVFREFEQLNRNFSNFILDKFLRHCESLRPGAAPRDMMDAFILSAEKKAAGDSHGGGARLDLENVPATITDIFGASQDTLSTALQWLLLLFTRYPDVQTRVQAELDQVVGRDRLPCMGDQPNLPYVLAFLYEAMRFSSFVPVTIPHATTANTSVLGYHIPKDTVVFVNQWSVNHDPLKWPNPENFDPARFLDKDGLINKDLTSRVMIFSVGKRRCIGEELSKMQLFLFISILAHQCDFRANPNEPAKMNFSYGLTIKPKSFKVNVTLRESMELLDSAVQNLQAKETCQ
Assay: Potency index, ratio of IC50 for ANF to IC50 for test compound for inhibition of human recombinant CYP1B1 using 7-ethoxyresorufin as substrate in presence of glucose-6-phosphate, glucose-6-phosphate dehydrogenase and NADPH-generating system incubated for 35 mins by fluorometry
Reply: number alone, nothing else.

Query string: Which relative potency vs ANF (IC50 ratio) at 35 min value belongs to `O=c1cc(-c2cccc(Cl)c2)oc2c1ccc1ccccc12` ?
Result string: 12

Query string: Can you check `S=c1cc(-c2ccc(Cl)cc2)oc2c1ccc1ccccc12` next?
Result string: 3

----------
Target: Cytochrome P450 1B1 (Homo sapiens, UniProt Q16678)
Experiment: Inhibition of human recombinant CYP1B1 using 7-ethoxyresorufin as substrate in presence of glucose-6-phosphate, glucose-6-phosphate dehydrogenase and NADPH-generating system incubated for 35 mins by fluorometry
Each record's class is read off its IC50 using these ranges: low bin = under 3 nM, mid bin = from 3 nM up to 10 nM, high bin = 10 nM and over

Query string: // return the class label for `O=c1cc(-c2ccncc2)oc2c1ccc1ccccc12`
Result string: mid bin

Query string: Another molecule to look at: `O=C1C=C(c2cccc(Cl)c2)S(=O)(=O)c2c1ccc1ccccc21`
Result string: high bin

Query string: What do you get for `O=c1cc(-c2cccnc2)oc2c1ccc1ccccc12` ?
Result string: mid bin

Query string: Queued: `O/N=c1\cc(-c2cccc(Cl)c2)oc2c1ccc1ccccc12`
Result string: high bin

Query string: Please answer likewise for `O=c1cc(-c2cccc(F)c2)oc2c1ccc1ccccc12`
Result string: low bin

Query string: Try this molecule too: `O=c1cc(-c2cccc(N3CCOCC3)c2)oc2c1ccc1ccccc12`
Result string: low bin

Query string: Could you do the same for `O/N=c1\cc(-c2ccc(Cl)cc2)oc2c1ccc1ccccc12` , please?
Result string: mid bin

Query string: Input `Fc1ccccc1-c1cc(=S)c2ccc3ccccc3c2o1`
Result string: high bin

Query string: Next molecule: `O/N=c1\cc(-c2ccccc2)oc2c1ccc1ccccc12`
Result string: mid bin

Query string: Moving on to `O=c1cc(-c2ccccn2)oc2c1ccc1ccccc12`
Result string: mid bin

Query string: Similarly, `O=c1cc(-c2ccc(F)cc2)oc2c1ccc1ccccc12` ?
Result string: low bin

Query string: And `O=c1cc(-c2ccccc2F)sc2c1ccc1ccccc12` ?
Result string: high bin

----------
Target: Cytochrome P450 1A1 (Homo sapiens, UniProt P04798)
Sequence (P04798 whole entry): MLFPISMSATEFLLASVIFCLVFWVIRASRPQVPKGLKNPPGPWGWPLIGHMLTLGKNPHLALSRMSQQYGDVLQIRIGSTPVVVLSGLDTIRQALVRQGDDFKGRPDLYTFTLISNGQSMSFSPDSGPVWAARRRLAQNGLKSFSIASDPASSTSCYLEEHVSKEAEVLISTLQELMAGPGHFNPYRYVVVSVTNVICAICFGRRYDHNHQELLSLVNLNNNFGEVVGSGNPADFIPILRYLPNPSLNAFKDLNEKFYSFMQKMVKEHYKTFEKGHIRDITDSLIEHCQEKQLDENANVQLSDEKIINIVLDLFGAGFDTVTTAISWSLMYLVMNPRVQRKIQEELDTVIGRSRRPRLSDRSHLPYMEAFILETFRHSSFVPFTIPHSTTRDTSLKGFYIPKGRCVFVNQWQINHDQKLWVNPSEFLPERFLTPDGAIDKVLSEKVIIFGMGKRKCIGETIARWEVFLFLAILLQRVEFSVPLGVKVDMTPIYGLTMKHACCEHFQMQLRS
Experiment: Inhibition of human recombinant CYP1A1 using 7-ethoxyresorufin as substrate in presence of glucose-6-phosphate, glucose-6-phosphate dehydrogenase and NADPH-generating system incubated for 15 mins by fluorometry
Give measured IC50 for each item. Keep answers brief.

Query string: What does the data say about its IC50? Entry: `COc1cc(-c2cc(=S)c3ccc4ccccc4c3o2)cc(OC)c1OC`
Result string: 28.2 nM

Query string: And `O=C1C=C(c2ccccc2)S(=O)(=O)c2c1ccc1ccccc21` ?
Result string: 129 nM

Query string: Next: `O=c1cc(-c2cccc(Cl)c2)sc2c1ccc1ccccc12`
Result string: 13.6 nM

Query string: Do the same for `Fc1ccccc1-c1cc(=S)c2ccc3ccccc3c2o1` please
Result string: 31.9 nM

Query string: Let us now turn to `O=c1cc(-c2ccccc2)sc2c1ccc1ccccc12`
Result string: 32.6 nM

Query string: Please answer likewise for `O=c1cc(-c2ccccc2F)sc2c1ccc1ccccc12`
Result string: 84.6 nM

Query string: Next: `O=c1cc(-c2ccccn2)oc2c1ccc1ccccc12`
Result string: 37.9 nM

Query string: What do you get for `COc1ccc(-c2cc(=O)c3ccc4ccccc4c3o2)cc1` ?
Result string: 30.9 nM

Query string: Likewise for `COc1cccc(-c2cc(=O)c3ccc4ccccc4c3o2)c1` ?
Result string: 35.8 nM

Query string: Next: `Fc1cccc(-c2cc(=S)c3ccc4ccccc4c3o2)c1`
Result string: 25.1 nM

Query string: Try this compound next: `Fc1ccc(-c2cc(=S)c3ccc4ccccc4c3o2)cc1`
Result string: 12.3 nM

Query string: Record: `O/N=c1\cc(-c2ccc(Cl)cc2)oc2c1ccc1ccccc12`
Result string: 44.4 nM

Query string: And then `COc1cc(-c2cc(=O)c3ccc4ccccc4c3o2)cc(OC)c1OC` , what is it?
Result string: 3 nM

Query string: Please answer likewise for `O=c1cc(-c2ccncc2)oc2c1ccc1ccccc12`
Result string: 18.7 nM

Query string: Consider next the compound `O=c1cc(-c2cccc(N3CCOCC3)c2)oc2c1ccc1ccccc12` in the same way.
Result string: 30.9 nM

Query string: Also check `CN1CCN(c2ccc(-c3cc(=O)c4ccc5ccccc5c4o3)cc2)CC1`
Result string: 153 nM

Query string: Try the compound `COc1cccc(-c2cc(=S)c3ccc4ccccc4c3o2)c1`
Result string: 72.8 nM

----------
Species on record: Homo sapiens
Assay: Selectivity index, ratio of IC50 for human recombinant CYP1A1 to IC50 for human recombinant CYP1B1 using 7-ethoxyresorufin as substrate in presence of glucose-6-phosphate, glucose-6-phosphate dehydrogenase and NADPH-generating system by fluorometry
Would you mind telling me the reported Ratio IC50 of each entry?
// no unit string in output, number only

Query string: Given the entry `O=c1cc(-c2cc(Cl)cc(Cl)c2)oc2c1ccc1ccccc12` , report its measured Ratio IC50.
Result string: 6.1

Query string: // same read-out, input: `COc1cc(-c2cc(=O)c3ccc4ccccc4c3o2)cc(OC)c1OC`
Result string: 0.6

Query string: Next entry: `O/N=c1\cc(-c2ccc(Cl)cc2)oc2c1ccc1ccccc12`
Result string: 5.6

Query string: Next molecule up: `O=c1cc(-c2ccc(Cl)cc2)oc2c1ccc1ccccc12`
Result string: 1

Query string: And for `CN(C)c1cccc(-c2cc(=O)c3ccc4ccccc4c3o2)c1` ?
Result string: 2.3

Query string: Try the molecule `S=c1cc(-c2cccc(Cl)c2)oc2c1ccc1ccccc12`
Result string: 3.4

Query string: Also `Fc1cccc(-c2cc(=S)c3ccc4ccccc4c3o2)c1` , if possible.
Result string: 5

Query string: Follow-up entry: `COc1ccc(-c2cc(=O)c3ccc4ccccc4c3o2)cc1`
Result string: 4.2

Query string: // repeat for `O=c1cc(-c2ccccc2)sc2c1ccc1ccccc12` and report
Result string: 0.6

Query string: Another: `O=c1cc(-c2cccc(N3CCOCC3)c2)oc2c1ccc1ccccc12`
Result string: 15.5

----------
Target: Cytochrome P450 1B1 (Homo sapiens, UniProt Q16678)
Assay: Inhibition of human recombinant CYP1B1 using 7-ethoxyresorufin as substrate in presence of glucose-6-phosphate, glucose-6-phosphate dehydrogenase and NADPH-generating system incubated for 35 mins by fluorometry
measured-quantity: IC50 (nM)
Write the value in nM as a bare number.

Query string: Form field: IC50 recorded for `S=c1cc(-c2ccc(Cl)cc2)oc2c1ccc1ccccc12` with Cytochrome P450 1B1 (Homo sapiens, UniProt Q16678) (enter value)
Result string: 1.6

Query string: Now the compound `O=c1cc(-c2ccc(Cl)cc2)sc2c1ccc1ccccc12`
Result string: 51.9

Query string: Record: `O=c1cc(-c2ccc(F)c(F)c2)oc2c1ccc1ccccc12`
Result string: 5.6

Query string: Next record, please: `CN1CCN(c2cccc(-c3cc(=O)c4ccc5ccccc5c4o3)c2)CC1`
Result string: 24.6

Query string: Repeat for the following compound: `O=c1cc(-c2ccc3ccccc3c2)oc2c1ccc1ccccc12`
Result string: 48.4

Query string: What about `Fc1ccc(-c2cc(=S)c3ccc4ccccc4c3o2)cc1` ?
Result string: 13.3

Query string: What do you get for `S=c1cc(-c2ccccc2)oc2c1ccc1ccccc12` ?
Result string: 7.8

Query string: Same lookup for `COc1cc(Cl)cc(-c2cc(=O)c3ccc4ccccc4c3o2)c1` , please.
Result string: 3.2

Query string: Same question for `CN1CCN(c2ccc(-c3cc(=O)c4ccc5ccccc5c4o3)cc2)CC1` please.
Result string: 63.8

Query string: Next compound up: `Fc1cccc(-c2cc(=S)c3ccc4ccccc4c3o2)c1`
Result string: 5

Query string: Thanks! And `COc1cccc(-c2cc(=S)c3ccc4ccccc4c3o2)c1` ?
Result string: 9.1

----------
Organism: Homo sapiens
Assay: Selectivity index, ratio of IC50 for human recombinant CYP1A2 to IC50 for human recombinant CYP1B1 using 7-ethoxyresorufin as substrate in presence of glucose-6-phosphate, glucose-6-phosphate dehydrogenase and NADPH-generating system by fluorometry
Please enter True where Ratio IC50 is greater than or equal to 5, and False where it is lower.

Query string: Would you say `O=c1cc(-c2ccc(F)cc2)oc2c1ccc1ccccc12` shows Ratio IC50 at minimum 5?
Result string: False

Query string: Likewise for `COc1cc(-c2cc(=O)c3ccc4ccccc4c3o2)cc(OC)c1OC` ?
Result string: True

Query string: Moving on to `O=c1cc(-c2cccc(Cl)c2)sc2c1ccc1ccccc12`
Result string: True

Query string: Next: `S=c1cc(-c2ccccc2)oc2c1ccc1ccccc12`
Result string: True

Query string: Next molecule up: `O=c1cc(-c2ccc(Cl)cc2)oc2c1ccc1ccccc12`
Result string: False

Query string: `O=c1cc(-c2ccncc2)oc2c1ccc1ccccc12` ?
Result string: False

Query string: Check `O=c1cc(-c2ccccc2F)oc2c1ccc1ccccc12` too.
Result string: True
